conditions: in ethanol, 303.15 K
Reported Metric: solubility (mole fraction)

record_smiles=N#Cc1ccc(C(=O)O)cc1 reported_metric="solubility (mole fraction)" recorded_value=0.0266

(P) O=C(O)c1ccc(Cl)cc1Cl
(Q) CC(=O)Oc1ccc(C(=O)O)cc1
(R) Nc1cc(N)cc(C(=O)O)c1
(S) COc1cc(OC)cc(C(=O)O)c1
Q: Please put the entries in order of rising solubility (mole fraction). Form field (ranking): labels in requested order.
Ans: R, S, Q, P
(R: 0.00342, S: 0.00607, Q: 0.0302, P: 0.0693)

* * *

settings: in ethanol, 313.15 K
Reported Metric: solubility (mole fraction)

(a) COc1cc(OC)cc(C(=O)O)c1
(b) Nc1cc(N)cc(C(=O)O)c1
Q: Param pair: a , b . Output: the one whose solubility (mole fraction) is numerically greater. Reply briefly: the label of your chosen item.
Ans: a

* * *

conditions: in ethanol, 298.15 K
Reported Metric: solubility (mole fraction)

// below: answered compounds
record_smiles=O=C(O)c1ccc(Cl)cc1Cl recorded_value=0.0581
record_smiles=N#Cc1ccc(C(=O)O)cc1 recorded_value=0.0214

(I) CC(=O)Oc1ccc(C(=O)O)cc1
(II) Nc1cc(N)cc(C(=O)O)c1
(III) COc1cc(OC)cc(C(=O)O)c1
Q: Ascending by solubility (mole fraction), please. # format: label list in the order the request specifies
Ans: II, III, I
(II: 0.00334, III: 0.00493, I: 0.0249)

* * *

conditions: in ethanol, 318.15 K
Reported Metric: solubility (mole fraction)

Reference set (2 entries):
record_smiles=N#Cc1ccc(C(=O)O)cc1 reported_metric="solubility (mole fraction)" recorded_value=0.044
record_smiles=O=C(O)c1ccc(Cl)cc1Cl reported_metric="solubility (mole fraction)" recorded_value=0.118

(1) COc1cc(OC)cc(C(=O)O)c1
(2) Nc1cc(N)cc(C(=O)O)c1
(3) CC(=O)Oc1ccc(C(=O)O)cc1
Q: I would appreciate it if you could sort these 3 compounds by solubility (mole fraction), starting from the smallest number. Response field: labels, in requested order.
Ans: 2, 1, 3
(2: 0.00519, 1: 0.0116, 3: 0.0522)

* * *

conditions: in ethanol, 308.15 K
Reported Metric: solubility (mole fraction)

Sample records with solubility (mole fraction):
record_smiles=N#Cc1ccc(C(=O)O)cc1 reported_metric="solubility (mole fraction)" recorded_value=0.0331
record_smiles=O=C(O)c1ccc(Cl)cc1Cl reported_metric="solubility (mole fraction)" recorded_value=0.0817
record_smiles=Nc1cc(N)cc(C(=O)O)c1 reported_metric="solubility (mole fraction)" recorded_value=0.004

(A) CC(=O)Oc1ccc(C(=O)O)cc1
(B) COc1cc(OC)cc(C(=O)O)c1
Q: Sorting ascending by solubility (mole fraction), which comes first: A or B ? Pick one and reply with its label.
Ans: B

* * *

details: in ethanol, 313.15 K
Reported Metric: solubility (mole fraction)

record_smiles=N#Cc1ccc(C(=O)O)cc1 reported_metric="solubility (mole fraction)" recorded_value=0.0353

(A) CC(=O)Oc1ccc(C(=O)O)cc1
(B) O=C(O)c1ccc(Cl)cc1Cl
Q: Field: lower recorded solubility (mole fraction) (choose A or B ) Write down the label of the entry you select.
Ans: A
(A: 0.0432, B: 0.0953)

Data credit: BigSolDB 2.1
